measurement.kind: melting point

{"columns": ["compound", "result"],
 "data": [
  ["O=C1C(=O)N(c2ccc(Cl)cc2)C(=O)N1c1ccccc1", "154 °C"],
  ["COc1ccc(C(=O)N(C)c2ccc(CO)cc2)cc1", "85 to 90 °C"],
  ["C[C@]1(CN2CCC(OCc3ccc(C(F)(F)F)cc3)CC2)Cn2cc([N+](=O)[O-])nc2O1", "91 to 92 °C"],
  ["COc1ccc(CN2C(C(=O)Nc3ccccn3)=C(O)c3sc4ccccc4c3S2(=O)=O)cc1", "188 to 190 °C"],
  ["O=C1c2ccc(N3CCN(c4ccccc4)CC3)nc2CC2CCCCC12 (stereo not given)", "164 to 166 °C"],
  ["CCOC(=O)C1=C(C2CC2)Nc2n[nH]cc2C1c1ccccc1Br (stereo not given)", "168 to 170 °C"],
  ["CCC(Nc1nc(NC(C)=O)nc(C(C)F)n1)c1ccccc1 (stereo not given)", "118 °C"],
  ["CC(C)(C)OC(=O)N1CCC(n2nc(-c3c(-c4ccccc4)nn4ccccc34)ccc2=O)CC1", "152 to 153 °C"],
  ["O=C(O)c1cn2c(ccc3ccc(Cl)cc32)n1", "288 to 289 °C"],
  ["O=[N+]([O-])c1cnccc1NCc1ccc(CO)o1", "135 °C"]
]}

====

Catalogue of compounds with associated melting point
measurement.kind: melting point

{"columns": ["compound", "measurement.kind", "result"],
 "data": [
  ["CN1C(=O)Cc2ccc(Cl)cc21", "melting point", "116 to 117 °C"],
  ["CCOC(=O)/C(C#N)=C/c1c(OC)cccc1OC", "melting point", "99 to 101 °C"],
  ["CCOCc1nc2c(N)nc3cc(-c4ccsc4)ccc3c2n1CC(C)(C)O", "melting point", "204 to 205 °C"],
  ["CS(=O)(=O)Nc1ccc(N)cc1CC1CCCCC1", "melting point", "160 to 162 °C"],
  ["O=C(c1ccc(CBr)cc1)c1ccc(CBr)cc1", "melting point", "118 to 119 °C"],
  ["Cn1c(=O)c(-c2ccc(Cl)cc2Cl)cc2c3cc(-c4coc(N)n4)ccc3n(C)c21", "melting point", "295 to 297 °C"],
  ["COC(=O)c1cncn1C1c2ccccc2CSC1(C)C (stereo unspecified)", "melting point", "108 to 109 °C"],
  ["O=C(NOCc1ccccc1)c1cc(F)c(Cl)nc1Cl", "melting point", "176 to 177 °C"],
  ["O=C(OCc1ccccc1)c1cc2cc(OCc3ccccc3)ccc2cc1OCc1ccccc1", "melting point", "99 to 102 °C"],
  ["Cc1cc(-c2ccc(Cl)cc2)nc2c(-c3nc(-c4ccc(S(N)(=O)=O)s4)no3)cnn12", "melting point", "253 °C"],
  ["COc1cc(Nc2c(C#N)cnc3cc(-c4ccc(CN5CCC[C@@H]5C(N)=O)cc4)ccc23)c(Cl)cc1Cl", "melting point", "180 to 182 °C"],
  ["CC(O)CN1CCC(c2noc3cc(F)ccc23)CC1 (stereo unspecified)", "melting point", "45 to 47 °C"],
  ["CC1(C)Cc2cc(C(=O)O)sc2C1", "melting point", "170 to 172 °C"],
  ["CC12CC(=O)C3C(CCC4CC(O)CCC43C)C1CCC2C(=O)CCCl (stereo unspecified)", "melting point", "110 to 112 °C"],
  ["CC(=O)n1cc(-c2ccccc2)c(-n2cnnc2)n1", "melting point", "165 to 168 °C"],
  ["Cc1cccc(C(=O)O)c1OCc1ccc(C(F)(F)F)cc1", "melting point", "104 to 106 °C"],
  ["Cc1cc(C)c2cccc(OCc3c(Cl)ccc(S(=O)(=O)N4CCC[C@H]4C(=O)N4CCN(C(=O)c5ccc(C=NN)cn5)CC4)c3Cl)c2n1", "melting point", "150 to 155 °C"],
  ["COC(=O)c1cc(C(C)=O)c(OCc2ccccc2)cc1OCc1ccccc1", "melting point", "114 to 115 °C"],
  ["COc1ccc(Nc2nc(Cl)c3sccc3n2)c(C)c1", "melting point", "151 to 153 °C"],
  ["COc1ccc(Cn2nnnc2C(=O)Nc2cccc(N3CCCCC3)c2C#N)cc1", "melting point", "166 to 168 °C"],
  ["NC(=O)C1CN(Cc2ccccc2)CCN1CCCC(c1ccc(F)cc1)c1ccc(F)cc1 (stereo unspecified)", "melting point", "79.2 °C"]
]}

====

Catalogue of compounds with associated melting point
measurement.kind: melting point (°C)

{"columns": ["compound", "number"],
 "data": [
  ["CC(=O)SCC(Cc1c(Cl)cccc1Cl)C(=O)NN1CCOCC1 (stereo not given)", 175],
  ["CC(C)Nc1cncc(C(=NCCO[N+](=O)[O-])NC#N)c1", 123]
]}

====

{"columns": ["molecule", "melting point"],
 "data": [
  ["CC1CCN(C(=O)C(C)Oc2ccc(Oc3ccc(C(F)(F)F)cn3)cc2)O1 (stereo unspecified)", "94 to 97 °C"],
  ["CNC(=S)C1(c2cccnc2)CCCCC1=CCOc1ccccc1 (stereo unspecified)", "121 to 122 °C"],
  ["O=C(C=Cc1ccc(F)c(F)c1)OCCc1ccccc1", "53 to 57 °C"],
  ["C=C1CSC2C(NC(=O)Cc3ccccc3)C(=O)N2C1C(=O)OC(c1ccccc1)c1ccccc1 (stereo unspecified)", "144 to 147 °C"],
  ["CC(=O)CCc1ccc(-c2ccccc2)cc1", "76 to 77 °C"],
  ["CCN(CC)CCOc1cccc2c1c1cc(Cl)ccc1n2Cc1ccc(F)cc1", "99 to 99.5 °C"],
  ["Cn1nnc(Cc2ccc3c(c2)c(C2=CCN(CCN4CCNC4=O)CC2)cn3-c2ccc(F)cc2)n1", "129 to 131 °C"],
  ["O=C(O)C1Cc2c(c(Cl)cc3c(-c4cccc(F)c4)noc23)O1 (stereo unspecified)", "209 to 210 °C"],
  ["CCOC(=O)CC[C@@H](C(=O)OCC)N1C(=O)c2ccc([N+](=O)[O-])cc2C1=O", "65.5 to 66.5 °C"],
  ["CC1CN(N=Cc2cccnc2)C(=O)NN1 (stereo unspecified)", "235 to 237 °C"],
  ["CCc1c(Cl)c(CC)c(-c2c(O)c(C)nn(C)c2=O)c(CC)c1Cl", "266 to 267 °C"],
  ["CON=C(c1ccccc1OCc1ccc(Cl)cc1Cl)n1ccnc1", "122 to 123 °C"],
  ["O=C1NC(=C2CCCC2)Sc2ccccc21", "190 to 191 °C"],
  ["COc1cc(COc2nn(-c3ccccc3)cc2CC(=O)O)ccc1OCc1nc(-c2ccccc2)oc1C", "147 to 148 °C"],
  ["COc1ccc2c(c1)CCC(c1ccccc1)=C2c1ccc(O)cc1", "158 to 162 °C"],
  ["CC(C)(C)OC(=O)N(Cc1ccccc1)[C@H](COP(=O)(Oc1ccccc1)Oc1ccccc1)C(=O)O", "108 to 109 °C"],
  ["Cc1nc(-c2cccc(Cl)c2)c2cc(C(O)(c3ccc(Cl)cc3)c3cncn3C)ccc2n1 (stereo unspecified)", "223 °C"],
  ["Cc1cc(N)nc(N)n1", "183 °C"],
  ["CCCCCCCCCCCCNc1nccc(NCCCO)n1", "58 to 59 °C"],
  ["CS(=O)(=O)c1ccc(C(CC2CCCC2)c2nc(F)c(C(=O)C3CC3)[nH]2)cc1 (stereo unspecified)", "160 to 162 °C"],
  ["Cc1ccc(C(=O)O)c(Nc2cc(C)nn2C)c1", "188 to 192 °C"]
]}

====

{"columns": ["compound", "melting point"],
 "data": [
  ["CCOc1ccccc1OC(c1ccccc1)C(O)CN (centres undefined)", "98.5 to 99.9 °C"],
  ["CC(C)(C)C(O)C(Oc1ccc(Cl)cc1)n1ccnc1 (centres undefined)", "145 to 147 °C"],
  ["Cn1cc(-c2cc(Cl)cc(Cl)c2)c(=O)c(-c2cccc(C(F)(F)F)c2)c1", "156 to 160 °C"],
  ["CCOC(=O)Cn1c(=O)c2cc(F)c(-c3ncc[nH]3)cc2n(Cc2ccc(Cl)cc2Cl)c1=O", "192 to 193 °C"],
  ["NC(=O)C(c1ccc(Cl)cc1)c1ncc(C(F)(F)F)cc1Cl (centres undefined)", "135 to 136 °C"],
  ["COC(=O)CCc1ccc(NC(=O)N(NC(=O)c2ccccc2)c2ccc(C#N)cc2)cc1", "76 to 81 °C"],
  ["CCCCCNC(=O)c1cc(N2CCN(C(=O)c3ccccc3C(F)(F)F)CC2)nn1C(=O)OCc1ccccc1", "58 to 61 °C"],
  ["N#CC=Cc1ccc(-c2ccccc2)cc1", "43.7 °C"],
  ["CC[C@H]1CN(c2c(F)cc3c(=O)c(C(=O)O)cn4c3c2OC[C@@H]4C)C[C@H]1NC", "211 to 213 °C"]
]}

Data origin, for the record: a melting point compilation (Tetko et al.; mined from patent text by program, amines drawn as free bases though some values may be those of a salt)
